# SUBJECT OF TEST: Bombyx mori EcR (VP16 fusion, CVBE switch construct) (Bombyx mori)
# Sequence (P49881 86-606): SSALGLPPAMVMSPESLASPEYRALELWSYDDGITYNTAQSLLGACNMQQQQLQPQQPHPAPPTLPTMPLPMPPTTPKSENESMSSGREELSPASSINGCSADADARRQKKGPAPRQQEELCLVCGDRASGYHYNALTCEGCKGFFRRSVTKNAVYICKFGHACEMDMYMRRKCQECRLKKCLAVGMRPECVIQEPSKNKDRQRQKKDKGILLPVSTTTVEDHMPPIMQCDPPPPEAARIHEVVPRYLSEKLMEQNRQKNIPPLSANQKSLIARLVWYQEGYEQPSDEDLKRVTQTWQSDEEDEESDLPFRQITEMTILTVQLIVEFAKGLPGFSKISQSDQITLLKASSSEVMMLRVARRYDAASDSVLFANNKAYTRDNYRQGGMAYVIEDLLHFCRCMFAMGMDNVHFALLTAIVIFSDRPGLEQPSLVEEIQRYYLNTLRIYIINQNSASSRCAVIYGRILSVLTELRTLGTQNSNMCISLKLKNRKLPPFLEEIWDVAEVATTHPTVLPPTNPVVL
# Sequence (P19793 1-462 partner): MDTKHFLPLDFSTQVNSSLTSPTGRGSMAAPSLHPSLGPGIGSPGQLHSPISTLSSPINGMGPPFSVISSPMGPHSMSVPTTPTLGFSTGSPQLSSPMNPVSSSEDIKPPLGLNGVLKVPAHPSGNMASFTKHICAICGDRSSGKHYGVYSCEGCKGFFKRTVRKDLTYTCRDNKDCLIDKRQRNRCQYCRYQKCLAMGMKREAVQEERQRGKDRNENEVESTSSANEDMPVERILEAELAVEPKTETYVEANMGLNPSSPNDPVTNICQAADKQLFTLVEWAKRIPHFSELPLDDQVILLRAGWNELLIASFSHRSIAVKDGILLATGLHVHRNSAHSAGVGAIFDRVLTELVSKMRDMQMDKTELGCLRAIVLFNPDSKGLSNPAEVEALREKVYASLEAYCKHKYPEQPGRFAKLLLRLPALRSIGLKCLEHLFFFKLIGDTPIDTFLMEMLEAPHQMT
# PROTOCOL NOTES: Z3 Assay (HEK-293 cells with CVBE and 6XEcRE LacZ, β-galactosidase reporter)
# EXPERIMENTAL SETUP: read-out: Z3 assay EC50; HEK-293 Z3 cells, β-galactosidase reporter; average of two wells
# Method: Dr. F. Gage provided a population of stably transformed cells containing CVBE and 6XEcRE as described in Suhr, S. T., Gil, E. B., Senut M. C., Gage, F. H. (1998) Proc. Natl. Acad. Sci. USA 95, 7999-804. […] Dilution cloning was used to isolate individual clones. […] Individual clones were evaluated based on their response in the presence and absence of test ligands. […]
REPORTED PROPERTY: EC50 (nM)
Just the number please, in nM, no unit attached.

EC50 for Bombyx mori EcR (VP16 fusion, CVBE switch construct) (Bombyx mori) with input Cc1c(O)cccc1C(=O)NN(C(=O)c1cc(Cl)nc(Cl)c1)C(C)(C)C [RG-115261] equals 29500

EC50 for Bombyx mori EcR (VP16 fusion, CVBE switch construct) (Bombyx mori) with input COc1cc(C(=O)N(NC(=O)c2cccc(O)c2C)C(C)(C)C)cc(OC)c1C [RG-115220] equals 871

EC50 for Bombyx mori EcR (VP16 fusion, CVBE switch construct) (Bombyx mori) with input Cc1cc(C)cc(C(=O)N(NC(=O)c2ccc3c(c2Br)OCCO3)C(C)(C)C)c1 [RG-101340] equals 234

EC50 for Bombyx mori EcR (VP16 fusion, CVBE switch construct) (Bombyx mori) with input Cc1cc(C)cc(C(=O)N(NC(=O)c2ccc3c(c2)COCO3)C(C)(C)C)c1 [RG-101016] equals 2000

EC50 for Bombyx mori EcR (VP16 fusion, CVBE switch construct) (Bombyx mori) with input Cc1cc(C)cc(C(=O)N(NC(=O)c2ccc3ncsc3c2)C(C)(C)C)c1 [RG-101312] equals 5620

EC50 for Bombyx mori EcR (VP16 fusion, CVBE switch construct) (Bombyx mori) with input COc1ccccc1C(=O)N(NC(=O)c1ccc2c(c1C)CCCO2)C(C)(C)C [RG-115102] equals 139

EC50 for Bombyx mori EcR (VP16 fusion, CVBE switch construct) (Bombyx mori) with input CCc1ccc(C(=O)NN(C(=O)c2cc(C)cc(C)c2)C(C)(C)C)cc1Cl [RG-101864] equals 245

EC50 for Bombyx mori EcR (VP16 fusion, CVBE switch construct) (Bombyx mori) with input CCc1c(OC)cccc1C(=O)NN(C(=O)c1cccc(C#N)c1)C(C)(C)C [RG-115327] equals 2750

EC50 for Bombyx mori EcR (VP16 fusion, CVBE switch construct) (Bombyx mori) with input COc1cc(C(=O)N(NC(=O)c2cccc(OC(C)=O)c2C)C(C)(C)C)cc(OC)c1C [RG-115557] equals 1700

EC50 for Bombyx mori EcR (VP16 fusion, CVBE switch construct) (Bombyx mori) with input CCc1c(OC)cccc1C(=O)NN(C(=O)c1cc(C)cc(C=NNC(=O)C(N)=O)c1)C(C)(C)C [RG-115613] equals 589

EC50 for Bombyx mori EcR (VP16 fusion, CVBE switch construct) (Bombyx mori) with input Cc1cc(C)cc(C(=O)N(NC(=O)c2cccc(OC(F)(F)F)c2C)C(C)(C)C)c1 [RG-101692] equals 309
